- System: K562
- Method Summary: Cytotoxicity against human K562 cells assessed as reduction in cell viability measured after 72 hrs by MTT assay
- Type: functional, cell-based
- Conditions Used: K562, 72 h
Recorded Endpoint: IC50

In the examples that follow, each entry is paired with its recorded IC50.
Compound	IC50
CC(CC[C@H]1/C(=C/c2ccc(F)cc2)CC[C@H]2C(C)(C)CCC[C@]12C)CC(=O)O (some centres not stated)	> 200 µM
C=C1CC[C@H]2C(C)(C)CCC[C@]2(C)[C@H]1CCC(C)CC(=O)OC (some centres not stated)	> 200 µM
CC(CC[C@H]1/C(=C/c2ccc(Cl)cc2)CC[C@H]2C(C)(C)CCC[C@]12C)CC(=O)O (some centres not stated)	> 200 µM
COc1cc([C@@H]2c3cc4c(cc3[C@@H](O[C@@H]3O[C@@H]5CO[C@@H](C)O[C@H]5[C@H](O)[C@H]3O)[C@H]3COC(=O)[C@H]23)OCO4)cc(OC)c1O [ETOPOSIDE]	66 µM

The following compounds each have a reported value; give each one's IC50.
1. COc1ccc(/C=C2\CC[C@H]3C(C)(C)CCC[C@]3(C)[C@H]2CCC(C)CC(=O)O)cc1OC (some centres not stated)
2. C=C1CC[C@H]2C(C)(C)CCC[C@]2(C)[C@H]1CCC(C)CC(=O)O (some centres not stated)
3. CC(CC[C@H]1/C(=C/c2ccc(I)cc2)CC[C@H]2C(C)(C)CCC[C@]12C)CC(=O)O (some centres not stated)

> 200 µM
> 200 µM
55 µM
